Test system: HEK293
Assay: Cytotoxic Profiling of Annotated Libraries Using Quantitative High-Throughput Screening (AID 1296008); note: nearly all actives have a fitted effect of over 60% in size
Conditions: Five cell lines viability, CellTiter-Glo ATP luminescence, 48-72 h
Results filed as inconclusive are left out. Active and inactive are the calls of the source. Calls come from the whole dose curve; as a rule, active = well fitted inhibition curve with a large enough effect; inconclusive = small, poorly fitted or top-dose-only effect; inactive = flat fitted curve, though single readings scatter.
Pick one: active, inactive

Hi team, can someone confirm the assay call for COC1CC(O[C@H]2CC[C@@]3(C)C(=CCC4C3C(O)[C@@H](O)[C@]3(C)[C@@H](C(C)=O)CC[C@]43O)C2)OC(C)C1OC1CC(OC)C(OC2OC(C)C(O)C(O)C2O)C(C)O1 (some centres undefined) ?
inactive

Hi team, can someone confirm the assay call for CCN1C[C@]2(COC)[C@H](O)C[C@H](OC)[C@]34[C@@H]5C[C@]6(O)[C@H](OC(=O)c7ccccc7)[C@@H]5[C@@](O)([C@H]([C@H](OC)[C@H]23)[C@@H]14)[C@@H](O)[C@@H]6OC ?
inactive

Hi team, can someone confirm the assay call for CCCN1CCO[C@H]2c3cc(O)ccc3OC[C@@H]21 ?
inactive

Hi team, can someone confirm the assay call for C/C=C(\C)C(=O)O[C@H]1[C@H](OC(C)=O)[C@]2(CO)[C@H](O)[C@H](O)[C@]3(C)C(=CCC4[C@@]5(C)CC[C@H](O[C@@H]6O[C@H](C(=O)O)[C@@H](O)[C@H](O[C@@H]7OC[C@H](O)[C@H](O[C@@H]8OC[C@H](O)[C@H](O)[C@H]8O)[C@H]7O)[C@H]6O[C@@H]6O[C@H](CO)[C@@H](O)[C@H](O)[C@H]6O)C(C)(C)C5CC[C@]43C)[C@@H]2CC1(C)C (some centres undefined) ?
inactive

Hi team, can someone confirm the assay call for CCc1c(C(=O)C(N)=O)c2c(OCC(=O)OC)cccc2n1Cc1ccccc1 ?
inactive

Hi team, can someone confirm the assay call for CC(N)Cc1c[nH]c2ccccc12 (centres undefined) ?
inactive

Hi team, can someone confirm the assay call for N#CC(OC1OC(COC2OC(CO)C(O)C(O)C2O)C(O)C(O)C1O)c1ccccc1 (centres undefined) ?
inactive

Hi team, can someone confirm the assay call for Clc1ccc(OCC2=NCCN2)cc1Cl ?
inactive

Hi team, can someone confirm the assay call for CN1C(=O)c2ccccc2NC(=O)C1Cc1ccccc1 (centres undefined) ?
inactive

Hi team, can someone confirm the assay call for C=C(C)[C@H]1O[C@H]2CC[C@@]3(C)[C@@](O)(CC[C@H]4[C@@H]5OC(C)(C)[C@H]6C[C@@H]7C(=C)Cc8c(Cl)cc9[nH]c(c5c9c8[C@@]76O)[C@@]43C)[C@]23O[C@@H]3[C@H]1O ?
inactive

Hi team, can someone confirm the assay call for COC1C(O)C(OC2CCC3(C=O)C(CCC4C3CCC3(C)C(C5=CC(=O)OC5)CCC43O)C2)OC(C)C1OC1OC(CO)C(O)C(O)C1O (centres undefined) ?
active

Hi team, can someone confirm the assay call for COCC1OC(=O)c2coc3c2C1(C)C1=C(C3=O)C2CCC(=O)C2(C)CC1O (centres undefined) ?
inactive

Hi team, can someone confirm the assay call for CN1[C@H]2C[C@H](OC(=O)[C@H](CO)c3ccccc3)C[C@@H]1[C@@H](O)C2 ?
inactive

Hi team, can someone confirm the assay call for COc1c(C(C)C)cc2c(c1O)[C@@]1(C(=O)O)CCCC(C)(C)C1CC2 (some centres undefined) ?
inactive
